# Target: staphylococcal enterotoxin B (Staphylococcus aureus (strain not …, UniProt P01552))
# Sequence (P01552 28-266): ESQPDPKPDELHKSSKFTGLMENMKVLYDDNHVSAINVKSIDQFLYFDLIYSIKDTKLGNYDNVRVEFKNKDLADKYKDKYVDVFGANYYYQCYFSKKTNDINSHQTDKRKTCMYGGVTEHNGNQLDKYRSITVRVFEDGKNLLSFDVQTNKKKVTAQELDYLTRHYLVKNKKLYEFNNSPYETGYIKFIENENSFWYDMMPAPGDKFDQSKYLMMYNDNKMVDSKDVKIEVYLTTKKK
# Protocol description: SPR
# Run parameters: both partners purified
Field: koff. Provide a value for each of the binders that follow.
Numbers only, in s⁻¹.

Batch request: koff for each of the following binders.
1. sdAb H9-D7 (VHH, source: E. coli Rosetta (DE3), periplasm, purified (IMAC, size exclusion chromatography)) VHH: DVQLQASGGGLVQVGGSLRLSCAASGSTFRIGYMSWHRQAPGKSRELVARISSGGTTDYLDSVKDRFTISRDNTKNTVYLQMNSLEPEDTAVYYCNVVDYRANEYWGQGTQVAVSS
2. sdAb D9 (VHH, source: E. coli Rosetta (DE3), periplasm, purified (IMAC, size exclusion chromatography)) VHH: EVQLQASGGGLAQAGDSLRLSCAASIRTFGSYAMGWFRQAPGKEREFVAAISWSGGDTYADSAKGRFTISRDNAKNMMYLQMNSLAPEDTAVYFCAIVEAKYYISKDARDYGYWGQGTQVFVSS

Outgoing:
1: 0.000192; 2: 0.000277

Recorded values, source paper PMC4118376.
